System: OVCAR-4 ovarian
measurement.description: NCI tumour cell line growth inhibition, 48 h
So I've got a bunch of compounds here, and I need their TGI values.

Task: Data request, read-out TGI, for N/C(=N\N=C\c1ccc2c(c1)OCO2)NO
Output: > 100 µM

Task: Data request, read-out TGI, for CC1CN(CCO)CC(C)O1 (configuration not stated)
Output: > 100 µM

Task: Data request, read-out TGI, for Cc1cc(NS(=O)(=O)c2ccc(NC(=O)c3ccc4nc5ccccc5c(Nc5ccc(S(=O)(=O)N=C(N)N)cc5)c4c3)cc2)no1
Output: 31.4 µM

Task: Data request, read-out TGI, for CCSc1ncnc2c(C3OC(CO)C(O)C3O)nsc12 (configuration not stated)
Output: > 100 µM

Task: Data request, read-out TGI, for NC(=O)C/C=C/CC(N)=O
Output: > 100 µM

Task: Data request, read-out TGI, for C=Nc1ccc([N+](=O)[O-])cc1
Output: > 100 µM

Task: Data request, read-out TGI, for [N-]=[N+]=Nc1ccc(S(=O)(=O)Oc2cc(OS(=O)(=O)c3ccc(N=[N+]=[N-])cc3)cc(OS(=O)(=O)c3ccc(N=[N+]=[N-])cc3)c2)cc1
Output: > 10 µM

----------
So I've got a bunch of molecules here, and I need their TGI values.
Tested on: HCC-2998 colon
measurement.description: NCI tumour cell line growth inhibition, 48 h
Number in µM, nothing else.

Task: Data request, read-out TGI, for Oc1ccc2c(c1)-c1c(c3cc(O)ccc3n1CCN1CCOCC1)CC2
Output: 32.6

Task: Data request, read-out TGI, for CC/C(Cl)=N\OC(=O)Nc1ccc(OC)cc1
Output: 15.7

----------
Tested on: UACC-257 melanoma
measurement.description: NCI tumour cell line growth inhibition, 48 h
So I've got a bunch of molecules here, and I need their TGI values.

Task: Data request, read-out TGI, for CC(=O)Nc1ccc2c(C(=O)O)c(C)c(=O)[nH]c2n1
Output: > 100 µM

Task: Data request, read-out TGI, for CN(C)CCCn1c(Cc2ccccc2)nc2cc(C(F)(F)F)ccc21
Output: 34.2 µM

Task: Data request, read-out TGI, for COC1CC(OC2OC(CO)C(O)C(O)C2O)/C(=C\C#N)C(O)C1OC (stereo not given)
Output: > 100 µM

Task: Data request, read-out TGI, for Cc1c2c(n3c(nc4ccccc43)c1C#N)SCC2
Output: > 10 µM

Task: Data request, read-out TGI, for [O-][n+]1onc2c3nn(-c4ccccc4)nc3ccc21
Output: > 92.2 µM

Task: Data request, read-out TGI, for Cc1cccc2c1C(=O)C1(Cc3ccccc3C1=O)C2 (stereo not given)
Output: > 100 µM

Task: Data request, read-out TGI, for COC(=O)C(=O)C(C#N)c1cccc2ccccc12 (stereo not given)
Output: > 100 µM

Task: Data request, read-out TGI, for C=CCOc1ccc(C2c3c([nH][nH]c3=O)CC(O)(OCC)C2C(=O)OCC)cc1OC (stereo not given)
Output: > 100 µM

Task: Data request, read-out TGI, for CN(NC(=O)/C(=C/c1ccc(O)cc1)NC(=O)c1ccccc1)c1ccnc2cc(Cl)ccc12
Output: 33.9 µM

Task: Data request, read-out TGI, for O=C(CCc1cccc(O)c1)NCCc1cccc(O)c1
Output: > 100 µM

Task: Data request, read-out TGI, for COc1cc(C2c3cc4c(cc3C(O)C3CCC(=O)N23)OCO4)cc(OC)c1OC (stereo not given)
Output: > 100 µM

Task: Data request, read-out TGI, for O=C(Nc1ccccc1)c1cc2c(cc1Cl)Sc1nccn1S2(=O)=O
Output: 53.7 µM

Task: Data request, read-out TGI, for O=C(O)Cc1ccc(Oc2nc3ccccc3nc2-c2cccs2)cc1
Output: > 100 µM

Task: Data request, read-out TGI, for Cc1ccc(S(=O)(=O)NC(=O)NC(Cc2c[nH]c3ccccc23)C(=O)O)cc1 (stereo not given)
Output: > 100 µM

Task: Data request, read-out TGI, for CCCCN(CCCC)C(=Nc1ccccc1)N(CCCC)CCCC
Output: 37.5 µM

Task: Data request, read-out TGI, for COc1ccc(-c2oc3ccc(C)cc3c(=O)c2O)cc1
Output: > 100 µM

Task: Data request, read-out TGI, for CSc1nc2ccccc2c(=O)n1/N=C1\C(=O)N(CN2CCOCC2)c2ccc(Cl)cc21
Output: 51.2 µM

Task: Data request, read-out TGI, for NNC(=O)CC(=O)Nc1ccc(Cl)cc1
Output: > 100 µM

Task: Data request, read-out TGI, for CC(C)(C)c1cc(C(O)(C(=O)O)C(=O)O)cc(C(C)(C)C)c1O
Output: > 100 µM

Task: Data request, read-out TGI, for C[C@]12CC[C@H]3[C@@H](CCC4=CC(=O)C=C[C@@]43O)[C@@H]1CCC2=O
Output: > 100 µM

Task: Data request, read-out TGI, for Cc1ccccc1N=C(N)NC#N
Output: > 100 µM

Task: Data request, read-out TGI, for Cc1c(-c2ccccc2)c(C#N)c2nnn(-c3ccccc3)c(=O)n12
Output: > 100 µM

Task: Data request, read-out TGI, for CC/C(Cl)=N\OC(=O)Nc1ccc(OC)cc1
Output: 30.2 µM

Task: Data request, read-out TGI, for COc1ccc(C2SC(N)=Nc3c2c(C)nn3C(=O)c2ccncc2)cc1 (stereo not given)
Output: > 100 µM

Task: Data request, read-out TGI, for O=C1Cc2c(-c3ccc(Cl)cc3)cc(-c3ccccc3)nc2-c2ccccc2N1
Output: > 100 µM

Task: Data request, read-out TGI, for C=Nc1ccc([N+](=O)[O-])cc1
Output: > 100 µM

Task: Data request, read-out TGI, for COC12C=C/C(=C(/C(=O)OCc3ccncn3)C(=O)CCCCCCCCC3(OC)C=C/C(=C(/C(=O)OCc4ccncn4)C(=O)CCCCCCCC1)O3)O2
Output: 0.882 µM

Task: Data request, read-out TGI, for Cc1cc(NS(=O)(=O)c2ccc(NC(=O)c3ccc4nc5ccccc5c(Nc5ccc(S(=O)(=O)N=C(N)N)cc5)c4c3)cc2)no1
Output: 67.1 µM

Task: Data request, read-out TGI, for CC1(CCCC2(C)CCNC2=O)OCCO1 (stereo not given)
Output: > 10 µM

Task: Data request, read-out TGI, for Cc1cc2c(-c3nc4ccccc4[nH]3)c(O)c(O)cc2c(O)c1-c1c(C)cc2c(-c3nc4ccccc4[nH]3)c(O)c(O)cc2c1O
Output: 16.2 µM

----------
Test system: A498 renal
measurement.description: NCI tumour cell line growth inhibition, 48 h
measured.parameter: TGI (µM)
Number in µM, nothing else.

Task: Data request, read-out TGI, for CN(NC(=O)/C(=C/c1ccc(O)cc1)NC(=O)c1ccccc1)c1ccnc2cc(Cl)ccc12
Output: 32.4

Task: Data request, read-out TGI, for O=C1Cc2c(-c3ccc(Cl)cc3)cc(-c3ccccc3)nc2-c2ccccc2N1
Output: 6.67

Task: Data request, read-out TGI, for Cc1cc(NS(=O)(=O)c2ccc(NC(=O)c3ccc4nc5ccccc5c(Nc5ccc(S(=O)(=O)N=C(N)N)cc5)c4c3)cc2)no1
Output: 33.7

Task: Data request, read-out TGI, for FC(F)(F)c1ccc2nc(-c3nc(-c4ccccc4)n4ccccc34)[nH]c2c1
Output: 5.85

Task: Data request, read-out TGI, for COc1cc2c(cc1OCCCC(=O)Nc1cc(C(=O)Nc3cc(C(=O)Nc4cc(C(=O)NCCCN(C)C)n(C)c4)n(C)c3)n(C)c1)N=C[C@@H]1CCCN1C2=O
Output: 26.4

Task: Data request, read-out TGI, for O=C1C=Cc2c(Cl)sc(Cl)c21
Output: 16.1

Task: Data request, read-out TGI, for CC/C(Cl)=N\OC(=O)Nc1ccc(OC)cc1
Output: 37

Task: Data request, read-out TGI, for CC(C)(C)C#C[P+](c1ccccc1)(c1ccccc1)c1ccccc1
Output: 1.35

----------
Test system: UO-31 renal
measurement.description: NCI tumour cell line growth inhibition, 48 h; in the data active = GI50 below about 0.43 µM; inactive = the rest
Assign a class; possible classes are active, inactive

Task: Hi team, can someone confirm the assay call for CC(C)Oc1cc(OCC(=O)O)cc(C(=O)N(CCC(N)=O)C(=O)Nc2ccc(C(=O)O)cc2OC(C)C)c1 ?
Output: inactive

Task: Hi team, can someone confirm the assay call for Cc1cc(Cl)n2c(nc3ccccc32)c1C#N ?
Output: active

Task: Hi team, can someone confirm the assay call for C=C1C(=O)OC(CCCCCCCC)C1C(=O)O (stereo unspecified) ?
Output: inactive

Task: Hi team, can someone confirm the assay call for COc1ccc(C(=O)CC2(O)C(=O)Nc3c(Cl)ccc(Cl)c32)cc1 (stereo unspecified) ?
Output: inactive

Task: Hi team, can someone confirm the assay call for COc1ccccc1/C=C1\COc2ccc(O)c(O)c2C1=O ?
Output: inactive

Task: Hi team, can someone confirm the assay call for COc1cc(-c2cc(-c3ccc(N(C)C)cc3)nc(N3CCC(O)CC3)c2C#N)cc(OC)c1OC ?
Output: active
